Source of measurements: patent US7135466B2

Let's look at some molecules and their measured pIC50.
Molecular target: PDGF-Ra (Homo sapiens)
Construct: host or cells: G-292 human osteosarcoma cells
Sequence (P16234 24-1089): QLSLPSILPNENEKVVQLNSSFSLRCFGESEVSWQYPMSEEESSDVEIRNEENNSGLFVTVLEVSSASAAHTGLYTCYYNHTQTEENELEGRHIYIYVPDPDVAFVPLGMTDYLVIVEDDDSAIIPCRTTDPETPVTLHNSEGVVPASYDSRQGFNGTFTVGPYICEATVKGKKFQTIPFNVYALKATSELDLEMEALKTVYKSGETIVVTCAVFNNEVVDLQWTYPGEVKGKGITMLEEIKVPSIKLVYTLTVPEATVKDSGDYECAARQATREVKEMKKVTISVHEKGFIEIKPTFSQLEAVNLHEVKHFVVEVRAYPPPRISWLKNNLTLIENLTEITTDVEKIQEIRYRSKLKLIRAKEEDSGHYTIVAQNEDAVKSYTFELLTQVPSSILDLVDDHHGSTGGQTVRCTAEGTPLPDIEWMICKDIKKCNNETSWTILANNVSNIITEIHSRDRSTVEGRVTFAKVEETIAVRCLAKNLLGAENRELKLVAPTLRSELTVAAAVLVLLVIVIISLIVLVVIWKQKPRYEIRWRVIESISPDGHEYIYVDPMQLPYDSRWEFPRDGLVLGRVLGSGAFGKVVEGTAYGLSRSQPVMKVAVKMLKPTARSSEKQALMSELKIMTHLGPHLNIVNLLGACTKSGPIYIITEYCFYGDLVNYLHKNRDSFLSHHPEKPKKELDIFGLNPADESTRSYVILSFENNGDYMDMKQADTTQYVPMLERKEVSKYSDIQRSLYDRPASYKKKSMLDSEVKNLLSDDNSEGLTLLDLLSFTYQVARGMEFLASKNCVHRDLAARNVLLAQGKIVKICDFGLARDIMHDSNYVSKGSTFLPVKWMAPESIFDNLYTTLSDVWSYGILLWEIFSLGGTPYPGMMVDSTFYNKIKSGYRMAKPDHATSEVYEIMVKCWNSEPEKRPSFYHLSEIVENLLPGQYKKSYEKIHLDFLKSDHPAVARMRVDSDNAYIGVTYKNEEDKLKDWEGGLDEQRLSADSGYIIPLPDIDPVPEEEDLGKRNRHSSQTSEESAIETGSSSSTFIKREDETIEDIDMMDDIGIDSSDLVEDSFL
Assay: Inhibitory activity against PDGF-Ra phosphorylation by PDGF-AA stimulation using G292
Type: cell-based
Details: Pharmacological Test Example 1; > means inhibition at indicated concentration not more than 50%, < and << not less than 50%; read-out: PDGF (E) IC50
pIC50: −log10 of the molar value.
Reported metric: pIC50

>>> quantitative_result("COc1cc2nccc(Oc3ccc(NC(=O)OC(C)c4ccc(C)cc4)cc3)c2cc1OC (stereo not drawn) [Example 132]")
7.59
>>> quantitative_result("COc1cc2nccc(Oc3ccc(NC(=O)OC(C)c4cccc(C(F)(F)F)c4)c(C)c3C)c2cc1OC (stereo not drawn) [Example 88]")
7.72
>>> quantitative_result("CCCC(OC(=O)Nc1ccc(Oc2ccnc3cc(OC)c(OC)cc23)c(C)c1C)c1ccccc1 (stereo not drawn) [Example 185]")
7.34
>>> quantitative_result("COc1cc2nccc(Oc3cc(C)c(NC(=O)OCCCOc4ccc(Cl)cc4)cc3C)c2cc1OC [Example 29]")
7.57
>>> quantitative_result("COc1cc2nccc(Oc3cc(C)c(NC(=O)OCCCOc4ccc(F)cc4)cc3C)c2cc1OC [Example 154]")
7.40
>>> quantitative_result("COc1ccc(COC(=O)Nc2ccc(Oc3ccnc4cc(OC)c(OC)cc34)c(C)c2C)cc1OC [Example 63]")
7.80
>>> quantitative_result("COc1ccc(OC)c(COC(=O)Nc2cc(C)c(Oc3ccnc4cc(OC)c(OC)cc34)cc2C)c1 [Example 69]")
7.28
>>> quantitative_result("COc1cc2nccc(Oc3cc(C)c(NC(=O)OC(C)c4ccccc4F)cc3C)c2cc1OC (stereo not drawn) [Example 124]")
7.38
>>> quantitative_result("COc1cc2nccc(Oc3cc(C)c(NC(=O)OCCSc4cc(C)ccc4C)cc3C)c2cc1OC [Example 167]")
7.35
>>> quantitative_result("COc1cc2nccc(Oc3cc(C)c(NC(=O)OCCCCCCN(C)C)cc3C)c2cc1OC [Example 310]")
7.17
>>> quantitative_result("COc1cc2ncnc(Oc3ccc(NC(=O)OC(C)c4cccc(Cl)c4)c(Cl)c3)c2cc1OC (stereo not drawn) [Example 7]")
7.92
>>> quantitative_result("CCCCCCOC(=O)Nc1ccc(Oc2ccnc3cc(OC)c(OC)cc23)c(C)c1C [Example 261]")
8.40
>>> quantitative_result("COc1cc2nccc(Oc3cc(C)c(NC(=O)OCC4CCCC4)cc3C)c2cc1OC [Example 395]")
7.72
>>> quantitative_result("COc1ccc(COC(=O)Nc2ccc(Oc3ccnc4cc(OC)c(OC)cc34)cc2)cc1OC [Example 62]")
7.89
>>> quantitative_result("CCC(OC(=O)Nc1cc(C)c(Oc2ccnc3cc(OC)c(OC)cc23)cc1C)c1ccccc1 (stereo not drawn) [Example 264]")
7.38

* * *

Biological target: PDGF-Ra (Homo sapiens)
Construct: host or cells: G-292 human osteosarcoma cells
Experiment: Inhibitory activity against PDGF-Ra phosphorylation by PDGF-AA stimulation using G292
Assay type: cell-based
Conditions: > means inhibition at indicated concentration not more than 50%, < and << not less than 50%; read-out: PDGF (E) IC50
Reported metric: IC50

>>> result("COc1cc2nccc(Oc3cc(C)c(NC(=S)NCCNC(C)=O)cc3C)c2cc1OC")
"> 100 nM"
>>> result("COc1cc2nccc(Oc3ccc(NC(=S)NC(=O)c4ccccc4C)cc3)c2cc1OC")
"< 10 nM"
>>> result("COc1cc2nccc(Oc3cc(C)c(NC(=O)NCCN4CCOCC4)cc3C)c2cc1OC")
"36 nM"
>>> result("COc1cc2nccc(Oc3cc(C)c(NC(=S)NCCN(C(C)C)C(C)C)cc3C)c2cc1OC")
"> 100 nM"
>>> result("CCCCC(CC)OC(=O)Nc1ccc(Oc2ncnc3cc(OC)c(OC)cc23)cc1 (stereo not drawn)")
"< 10 nM"
>>> result("COc1cc(Oc2ncnc3cc(OC)c(OC)cc23)ccc1NC(=O)NC1CCN(Cc2ccccc2C)C1 (stereo not drawn)")
"32 nM"
>>> result("CCN(CC)CCNC(=O)Nc1ccc(Oc2ccnc3cc(OC)c(OC)cc23)c(C)c1C")
"34 nM"
>>> result("COc1cc2nccc(Oc3ccc(NC(=O)NC4CCN(Cc5ccccc5C)CC4)cc3)c2cc1OC")
"> 100 nM"
>>> result("COc1cc2nccc(Oc3ccc(NC(=S)NC(=O)c4ccc(C5CCCCC5)cc4)cc3)c2cc1OC")
"> 100 nM"
>>> result("COc1cc2nccc(Oc3ccc(NC(=S)NC(=O)CCC4CCCC4)c(Cl)c3)c2cc1OC")
"> 100 nM"
>>> result("CCCCCC(C)OC(=O)Nc1ccc(Oc2ccnc3cc(OC)c(OC)cc23)c(C)c1C (stereo not drawn)")
"39 nM"
>>> result("COc1cc2nccc(Oc3cc(C)c(NC(=O)Oc4ccc(C#N)cc4)cc3C)c2cc1OC")
"> 100 nM"
>>> result("COc1cc2nccc(Oc3ccc(NC(=S)NC(=O)c4cc(Cl)cc(Cl)c4)c(Cl)c3)c2cc1OC")
"> 100 nM"
>>> result("COc1cc2nccc(Oc3ccc(NC(=S)NC(=O)c4ccc(-c5ccccc5)cc4)c(F)c3)c2cc1OC")
"> 100 nM"
>>> result("COc1cc2nccc(Oc3ccc(NC(=S)NC(=O)C(OC)c4ccccc4)cc3Cl)c2cc1OC (stereo not drawn)")
"> 100 nM"
>>> result("COc1cc2ncnc(Oc3ccc(NC(=S)NC(=O)c4ccc(Br)cc4)cc3)c2cc1OC")
"< 10 nM"
>>> result("CCCC(CCN(CC)CC)OC(=O)Nc1cc(C)c(Oc2ccnc3cc(OC)c(OC)cc23)cc1C (stereo not drawn)")
"> 100 nM"
>>> result("CCN(C(=O)OCc1ccccc1C)c1ccc(Oc2ncnc3cc(OC)c(OC)cc23)cc1Cl")
"> 100 nM"
